Measured values drawn from ChEMBL document CHEMBL1201862 for this set.

- Tested on: M14
- protocol_description: NCI tumour cell line growth inhibition, 48 h
Calls of active or inactive are those of the source. Cut-off read from the data, not from the text of the source: active = GI50 up to about 1.1 µM and inactive = higher.
# GI50 annotations

compound: Cn1cc2ccccc2c1-c1nc(N)nc(F)n1
GI50: > 100 µM (inactive)
//
compound: CN(C)c1ccc(/C=C2\C=Cc3ccccc32)cc1
GI50: 29.2 µM (inactive)
//
compound: CC(C)=CCCC(C)CCOS(=O)C(F)(F)F (stereo not given)
GI50: 1.35 µM (inactive)
//
compound: CNS(=O)(=O)NNS(=O)(=O)c1cccc([N+](=O)[O-])c1
GI50: > 100 µM (inactive)
//
compound: O=C(Cc1nc2ccc([N+](=O)[O-])cc2nc1O)C(=O)Nc1cc(Cl)c(Cl)cc1Cl
GI50: > 100 µM (inactive)
//
compound: Cc1ccc(S(=O)(=O)CC2(Br)CCc3ccccc3C2=O)cc1 (stereo not given)
GI50: 45.4 µM (inactive)
//
compound: COc1cc(C[S+]([O-])c2ccc(O)cc2)cc(OC)c1OC (stereo not given)
GI50: > 100 µM (inactive)
//
compound: N#Cc1ccc(Nc2cnc3cc(N)ccc3n2)cc1
GI50: > 100 µM (inactive)
//
compound: COc1ccc(/C(=N/Nc2ccccc2)C(c2ccc(OC)cc2)C2OC(=O)c3ccccc32)cc1 (stereo not given)
GI50: > 100 µM (inactive)
//
compound: Cn1c(=O)c2c(nc3[nH]c(=O)c(Br)cn32)n(C)c1=O
GI50: > 100 µM (inactive)
//
compound: CCCCCCCCCCCCCP(=O)(O)NCC(N)=O
GI50: 29.2 µM (inactive)
//
compound: CN(C)c1ccc(/C=C(\NC(=O)c2ccccc2)c2nc3cncnc3[nH]2)cc1
GI50: > 100 µM (inactive)
//
compound: COCn1c(C)c(C)c2c(=O)oc(N(C)C)nc21
GI50: > 100 µM (inactive)
//
compound: O=C1CC2(CCC(O)(c3cccs3)C(C(=O)c3cccs3)C2)C(=O)c2ccccc2N1 (stereo not given)
GI50: > 100 µM (inactive)
//
compound: CN(C(=O)C1(C(=O)C=[N+]=[N-])CC1)c1ccccc1
GI50: > 100 µM (inactive)

* * *

- Test system: NCI-H522
- protocol_description: NCI tumour cell line growth inhibition, 48 h
Calls of active or inactive are those of the source. Cut-off read from the data, not from the text of the source: active = GI50 up to about 1.1 µM and inactive = higher.
# GI50 annotations

compound: CN1CN(c2ccccc2)C2(CCN(C3Nc4ccccc4O3)CC2)C1=O (configuration not stated)
GI50: 17.5 µM (inactive)
--
compound: O=C(c1ccccc1)c1ccc2[nH]c(-c3c(Cl)c(Cl)c(Cl)c(Cl)c3C(=O)N/N=C\C=C\c3ccccc3)nc2c1
GI50: 26.9 µM (inactive)
--
compound: N=C(NNS(=O)(=O)c1ccccc1)Oc1ccc(Br)cc1Br
GI50: 67 µM (inactive)
--
compound: CC(C)c1ccc(C(O)(C(=O)O)c2ccc(C(C)C)cc2)cc1
GI50: 34 µM (inactive)
--
compound: C(=N\Nc1nnc2c(n1)[nH]c1ccccc12)/c1cccnc1
GI50: > 100 µM (inactive)
--
compound: CCc1cccc(C(C)C)c1N1C(=O)C(=O)C(c2nc3ccccc3s2)C(=O)C1=O
GI50: 17.7 µM (inactive)
--
compound: O=C(O)C1CC=CCC1C(=O)Nc1cccc(O)c1 (configuration not stated)
GI50: > 100 µM (inactive)
--
compound: COc1cc(C2C(Cl)C(=O)N2c2c(C)n(C)n(-c3ccccc3)c2=O)ccc1O (configuration not stated)
GI50: 13.6 µM (inactive)
--
compound: COC(=O)Cc1cccc2c1CCC2=O
GI50: > 100 µM (inactive)
--
compound: NC(=O)c1cc2cc(Cl)cc(Cl)c2o/c1=N\c1ccc(F)cc1
GI50: 17.7 µM (inactive)
--
compound: Cn1c(=O)c2[nH]c(/N=N\n3ccc4ccccc43)nc2n(C)c1=O
GI50: > 100 µM (inactive)
--
compound: CNS(=O)(=O)NNS(=O)(=O)c1cccc([N+](=O)[O-])c1
GI50: > 100 µM (inactive)
